Ref: patent US20240024302A1

experiment: Mouse PK, single oral gavage; conditions: mouse, in vivo, po, 0.3 mg/kg, Mouse T1/2, oral gavage, single dose 0.3 mg/kg
half-life reference

Below, each entry is followed by its recorded half-life result.
[
  {
    "compound": "O=C(Nc1ccc(C(F)(F)F)cc1)NC1CCN(C(=O)C2CCCOC2)CC1 (centres unmarked)",
    "half-life": "4.1 h"
  },
  {
    "compound": "CC(C)C(=O)N1CCC(NC(=O)Nc2ccc(OC(F)(F)F)c(F)c2)CC1",
    "half-life": "4.8 h"
  },
  {
    "compound": "O=C(Nc1ccc(C(F)(F)F)cc1)NC1CCN(C(=O)C2=COCC2)CC1",
    "half-life": "2.8 h"
  },
  {
    "compound": "O=C(Nc1ccc(OC(F)(F)F)cc1)NC1CCN(C(=O)c2ccoc2)CC1",
    "half-life": "5.1 h"
  },
  {
    "compound": "O=C(Nc1ccc(OC(F)(F)F)c(F)c1)NC1CCN(C(=O)C2CC2)CC1",
    "half-life": "5.1 h"
  }
]

Q: Identify measured half-life corresponding to O=C(Nc1ccc(OC(F)(F)F)cc1)NC1CCN(C(=O)C2CCOCC2)CC1
Result: 2.8 h

Q: Tell us which half-life value is on record for O=C(Nc1ccc(OC(F)(F)F)cc1)NC1CCN(C(=O)C2CCCOC2)CC1 (centres unmarked)
Result: 5.3 h

Q: Please indicate half-life recorded for CC[C@H](C)C(=O)N1CCC(NC(=O)Nc2ccc(OC(F)(F)F)c(F)c2)CC1 [drawing 88]
Result: 117 h

Q: Respond only with half-life recorded for O=C(Nc1ccc(C(F)(F)F)cc1)NC1CCN(C(=O)C2CCOC2)CC1 (centres unmarked)
Result: 6.9 h

Q: State its half-life for this compound: O=C(Nc1ccc(C(F)(F)F)cc1)NC1CCN(C(=O)c2ccoc2)CC1
Result: 4.2 h

----------
test: Rat PK, single oral gavage; format: in vivo; details: single dose 0.1 mg/kg
outcome measure: Cmax (nM)
Your answer is read as nM, so omit the unit and give the number.

Use these answered entries as a reference point.
[
  {
    "compound": "O=C(Nc1ccc(OC(F)(F)F)c(F)c1)NC1CCN(C(=O)C2CC2)CC1",
    "unit abbreviation": "nM",
    "reported value": 95
  },
  {
    "compound": "CC[C@H](C)C(=O)N1CCC(NC(=O)Nc2ccc(OC(F)(F)F)c(F)c2)CC1 [drawing 88]",
    "unit abbreviation": "nM",
    "reported value": 42
  }
]

Q: Return Cmax for the following compound: CCC(=O)N1CCC(NC(=O)Nc2ccc(OC(F)(F)F)c(F)c2)CC1
Result: 196

----------
test: Rat PK, single oral gavage; format: in vivo; conditions: rat, in vivo, single dose 0.1 mg/kg
This listing pairs compounds with measured Cmax.
# value in nM; strip the unit string

Use these answered entries as a reference point.
[
  {
    "compound": "CC[C@H](C)C(=O)N1CCC(NC(=O)Nc2ccc(OC(F)(F)F)c(OC(F)(F)F)c2)CC1",
    "Cmax (nM)": 11
  },
  {
    "compound": "O=C(Nc1ccc(OC(F)(F)F)c(F)c1)NC1CCN(C(=O)C2CCCOC2)CC1 (stereo not drawn)",
    "Cmax (nM)": 43
  },
  {
    "compound": "CC[C@H](C)C(=O)N1CCC(NC(=O)Nc2ccc(OC(F)(F)F)c(Cl)c2)CC1",
    "Cmax (nM)": 42
  },
  {
    "compound": "O=C(Nc1ccc(C(F)(F)F)c(F)c1)NC1CCN(C(=O)C2CCOCC2)CC1",
    "Cmax (nM)": 139
  },
  {
    "compound": "CCC(=O)N1CCC(NC(=O)Nc2ccc(OC(F)(F)F)cc2)CC1 [drawing 62]",
    "Cmax (nM)": 133
  },
  {
    "compound": "O=C(Nc1ccc(OC(F)(F)F)cc1)NC1CCN(C(=O)C2CCOCC2)CC1",
    "Cmax (nM)": 23
  },
  {
    "compound": "CCOC(=O)N1CCC(NC(=O)Nc2ccc(OC(F)(F)F)c(F)c2)CC1",
    "Cmax (nM)": 105
  },
  {
    "compound": "Cc1occc1C(=O)N1CCC(NC(=O)Nc2ccc(OC(F)(F)F)cc2)CC1",
    "Cmax (nM)": 133
  }
]

Field: next compound
Q: Name the recorded Cmax of the compound listed here: CC[C@H](C)C(=O)N1CCC(CC(=O)Nc2ccc(OC(F)(F)F)c(F)c2)CC1
Result: 3.6
